The measurements presented in this section are drawn from ChEMBL document CHEMBL3779859.

- Test system: Pseudomonas aeruginosa
- Experimental protocol: Antibacterial activity against Pseudomonas aeruginosa LES431 clinical isolate after 16 to 20 hrs by microdilution assay
- Type: functional
Peptide text beside a SMILES is read from it. * marks the point of attachment. Myristoyl = CCCCCCCCCCCCCC(=O)*; Lauroyl = CCCCCCCCCCCC(=O)*; Decanoyl = CCCCCCCCCC(=O)*; Octanoyl = CCCCCCCC(=O)*; Hexanoyl = CCCCCC(=O)*
Quick reference: MIC of the listed items.
Measured parameter: MIC (µg/mL)

{"Molecule": "CCCCCCCCCC(=O)N[C@@H](CCCNC(=N)N)C(=O)N[C@@H](Cc1c[nH]c2ccccc12)C(=O)N[C@@H](CCCNC(=N)N)C(=O)N[C@@H](Cc1c[nH]c2ccccc12)C(=O)N[C@@H](CCCNC(=N)N)C(=O)N[C@@H](Cc1c[nH]c2ccccc12)C(=O)N[C@@H](CCCCN)C(=O)O (Decanoyl-RWRWRWK-OH)", "Measured parameter": "MIC", "Bound sign": "=", "Recorded number": 32}
{"Molecule": "CCCCCC(=O)N[C@@H](CCCNC(=N)N)C(=O)N[C@@H](Cc1c[nH]c2ccccc12)C(=O)N[C@@H](CCCNC(=N)N)C(=O)N[C@@H](Cc1c[nH]c2ccccc12)C(=O)N[C@@H](CCCNC(=N)N)C(=O)N[C@@H](Cc1c[nH]c2ccccc12)C(=O)N[C@@H](CCCCN)C(=O)O (Hexanoyl-RWRWRWK-OH)", "Measured parameter": "MIC", "Bound sign": ">", "Recorded number": 128}
{"Molecule": "CCCCCCCC(=O)N[C@@H](CCCNC(=N)N)C(=O)N[C@@H](Cc1c[nH]c2ccccc12)C(=O)N[C@@H](CCCNC(=N)N)C(=O)N[C@@H](Cc1c[nH]c2ccccc12)C(=O)N[C@@H](CCCNC(=N)N)C(=O)N[C@@H](Cc1c[nH]c2ccccc12)C(=O)N[C@@H](CCCCN)C(=O)O (Octanoyl-RWRWRWK-OH)", "Measured parameter": "MIC", "Bound sign": "=", "Recorded number": 64}
{"Molecule": "CC(C)(O/N=C(\\C(=O)N[C@@H]1C(=O)N2C(C(=O)[O-])=C(C[n+]3ccccc3)CS[C@H]12)c1csc(N)n1)C(=O)O", "Measured parameter": "MIC", "Bound sign": "=", "Recorded number": 256}
{"Molecule": "CCCCCCCCCCCCCC(=O)N[C@@H](CCCNC(=N)N)C(=O)N[C@@H](Cc1c[nH]c2ccccc12)C(=O)N[C@@H](CCCNC(=N)N)C(=O)N[C@@H](Cc1c[nH]c2ccccc12)C(=O)N[C@@H](CCCNC(=N)N)C(=O)N[C@@H](Cc1c[nH]c2ccccc12)C(=O)N[C@@H](CCCCN)C(=O)O (Myristoyl-RWRWRWK-OH)", "Measured parameter": "MIC", "Bound sign": ">", "Recorded number": 128}
{"Molecule": "CCCCCC(=O)NCCCC[C@H](NC(=O)[C@H](Cc1c[nH]c2ccccc12)NC(=O)[C@H](CCCNC(=N)N)NC(=O)[C@H](Cc1c[nH]c2ccccc12)NC(=O)[C@H](CCCNC(=N)N)NC(=O)[C@H](Cc1c[nH]c2ccccc12)NC(=O)[C@@H](N)CCCNC(=N)N)C(=O)O (H-RWRWRWK(Hexanoyl)-OH)", "Measured parameter": "MIC", "Bound sign": ">", "Recorded number": 128}
{"Molecule": "NC[C@H]1O[C@H](O[C@H]2[C@H](O)[C@@H](O[C@H]3O[C@H](CO)[C@@H](O)[C@H](N)[C@H]3O)[C@H](N)C[C@@H]2N)[C@H](N)C[C@@H]1O", "Measured parameter": "MIC", "Bound sign": "=", "Recorded number": 2}
{"Molecule": "CCCCCCCCCCCCCC(=O)NCCCC[C@H](NC(=O)[C@H](Cc1c[nH]c2ccccc12)NC(=O)[C@H](CCCNC(=N)N)NC(=O)[C@H](Cc1c[nH]c2ccccc12)NC(=O)[C@H](CCCNC(=N)N)NC(=O)[C@H](Cc1c[nH]c2ccccc12)NC(=O)[C@@H](N)CCCNC(=N)N)C(=O)O (H-RWRWRWK(Myristoyl)-OH)", "Measured parameter": "MIC", "Bound sign": "=", "Recorded number": 128}
{"Molecule": "C[C@@H](O)[C@H]1C(=O)N2C(C(=O)O)=C(S[C@@H]3CN[C@H](C(=O)N(C)C)C3)[C@H](C)[C@H]12", "Measured parameter": "MIC", "Bound sign": "=", "Recorded number": 8}
{"Molecule": "CCCCCCCC(=O)NCCCC[C@H](NC(=O)[C@H](Cc1c[nH]c2ccccc12)NC(=O)[C@H](CCCNC(=N)N)NC(=O)[C@H](Cc1c[nH]c2ccccc12)NC(=O)[C@H](CCCNC(=N)N)NC(=O)[C@H](Cc1c[nH]c2ccccc12)NC(=O)[C@@H](N)CCCNC(=N)N)C(=O)O (H-RWRWRWK(Octanoyl)-OH)", "Measured parameter": "MIC", "Bound sign": "=", "Recorded number": 128}
{"Molecule": "CCCCCCCCCCCC(=O)N[C@@H](CCCNC(=N)N)C(=O)N[C@@H](Cc1c[nH]c2ccccc12)C(=O)N[C@@H](CCCNC(=N)N)C(=O)N[C@@H](Cc1c[nH]c2ccccc12)C(=O)N[C@@H](CCCNC(=N)N)C(=O)N[C@@H](Cc1c[nH]c2ccccc12)C(=O)N[C@@H](CCCCN)C(=O)O (Lauroyl-RWRWRWK-OH)", "Measured parameter": "MIC", "Bound sign": "=", "Recorded number": 64}
{"Molecule": "CCCCCCCCCC(=O)NCCCC[C@H](NC(=O)[C@H](Cc1c[nH]c2ccccc12)NC(=O)[C@H](CCCNC(=N)N)NC(=O)[C@H](Cc1c[nH]c2ccccc12)NC(=O)[C@H](CCCNC(=N)N)NC(=O)[C@H](Cc1c[nH]c2ccccc12)NC(=O)[C@@H](N)CCCNC(=N)N)C(=O)O (H-RWRWRWK(Decanoyl)-OH)", "Measured parameter": "MIC", "Bound sign": "=", "Recorded number": 32}
